The values you see were collected from paper PMC7356998.

ASSAY COMMENT: Intrinsic dissolution rate from controlled suspensions (SIDR), μDiss Profiler
Format: physicochemical
TEST CONDITIONS: suspension (S), FaSSIF-V2 pH 6.5, 37 °C, 100 rpm, mean ± SD
OBSERVATION TYPE: IDRFaSSIF-V2

> print(dat)
                                   compound          value.observed
1  COc1ccccc1OCCNCC(O)COc1cccc2[nH]c3ccccc3c12 (stereo not shown)   1.5 ± 0.2 μg/min/cm^2
2  OCCN(CCO)c1nc(N2CCCCC2)c2nc(N(CCO)CCO)nc(N3CCCCC3)c2n1  0.5 ± 0.03 μg/min/cm^2
3  COc1ccc(CCN2CCC(Nc3nc4ccccc4n3Cc3ccc(F)cc3)CC2)cc1   2.0 ± 0.2 μg/min/cm^2

Field: next compound
Problem: Look up and state reported IDRFaSSIF-V2 for `CN1CC(=O)N2[C@H](c3ccc4c(c3)OCO4)c3[nH]c4ccccc4c3C[C@@H]2C1=O`
Solution: 1.3 ± 0.8 μg/min/cm^2

---

ASSAY COMMENT: physchem
TEST CONDITIONS: 37 °C, pH 6.5, fassif, thermodynamic from solid
OBSERVATION TYPE: solubility thermodynamic
Give the number first and the unit second.

Problem: Look up and state reported solubility thermodynamic for C#C[C@]1(O)CC[C@H]2[C@@H]3CCc4cc(O)ccc4[C@H]3CC[C@@]21C [Ethinylestradiol]
Solution: 18.7 µg/mL

---

ASSAY COMMENT: Apparent solubility estimated from dissolution experiments in the μDiss Profiler
Format: physicochemical
TEST CONDITIONS: FaSSIF-V1, 37 °C, pH 6.5, fassif, thermodynamic from solid, FaSSIF-V1 pH 6.5, determined from dissolution experiments in the μDiss Profiler; read-out: SFaSSIF-V1
OBSERVATION TYPE: solubility thermodynamic

> print(dat)
                                   compound          observation.type  value.observed
1  CC(C)(Oc1ccc(CCNC(=O)c2ccc(Cl)cc2)cc1)C(=O)O [Bezafibrate]  solubility thermodynamic      ~100 µg/mL
2  Cc1cccc(Nc2ccccc2C(=O)O)c1C [Mefenamic acid]  solubility thermodynamic      36.6 µg/mL

Field: next compound
Problem: Look up and state reported solubility thermodynamic for CC(C)(Oc1ccc(C(=O)c2ccc(Cl)cc2)cc1)C(=O)O [Fenofibric acid]
Solution: ~100 µg/mL

---

ASSAY COMMENT: Apparent solubility estimated from dissolution experiments in the μDiss Profiler
Type: physicochemical
TEST CONDITIONS: FeSSIF-V1, 37 °C, pH 5, fessif, thermodynamic from solid, FeSSIF-V1 pH 5, determined from dissolution experiments in the μDiss Profiler; read-out: SFeSSIF-V1
OBSERVATION TYPE: solubility thermodynamic
Give the number first and the unit second.

Below are worked cases with known answers.
> print(dat)
                         chemical.structure          observation.type  value.observed
1               Cc1cccc(Nc2ccccc2C(=O)O)c1C  solubility thermodynamic      33.2 µg/mL
2  CC(C)(Oc1ccc(C(=O)c2ccc(Cl)cc2)cc1)C(=O)O  solubility thermodynamic       101 µg/mL

Field: next compound
Problem: Look up and state reported solubility thermodynamic for `CN1CC(=O)N2[C@H](c3ccc4c(c3)OCO4)c3[nH]c4ccccc4c3C[C@@H]2C1=O`
Solution: 21 µg/mL
